Every entry's value here was drawn from ChEMBL document CHEMBL1126188.

Experiment: Selectivity index is calculated by dividing the TC25(CEM) by ID50(CEM)
Format: functional
# key: entry, value: Selectivity index
Lab note: jot the number down without any unit.

> print(dat)
                              compound  reading
1  Nc1ccn([C@H]2CC[C@@H](CO)O2)c(=O)n1      120

Give the measured Selectivity index of Nc1nc(N)c2ncn(C3CC[C@@H](CO)S3)c2n1 (some centres undefined) .
2.6

---

System: MT2
Experiment: Minimum compound concentration that reduced cell viability by 25% for HIV replication in MT-2 cells.
Assay type: functional, Homo sapiens
PARAMETER: TC25

Study these solved cases before continuing.
> print(dat)
                                   compound  tgt    reading
1  Nc1ncnc2c1ncn2C1CC[C@@H](CO)S1 (stereo not given in full)  MT2  >100 mg/L
2  Cc1cn([C@H]2C[C@H](N=[N+]=[N-])[C@@H](CO)O2)c(=O)[nH]c1=O  MT2   9.3 mg/L
3  Nc1ccn(C2CC[C@@H](CO)S2)c(=O)n1 (stereo not given in full)  MT2  >100 mg/L

Give the measured TC25 of Nc1nc(O)c2ncn(C3CC[C@@H](CO)S3)c2n1 (stereo not given in full) .
>200 mg/L

Give the measured TC25 of Nc1ccn([C@H]2CC[C@@H](CO)O2)c(=O)n1 .
>9.8 mg/L
